molecular target: LC3B K65W; assay: ITC
RECORDED_METRIC: pKd
Lab note — pKd values are minus log10 of concentrations in M.

Fill in reported pKd for this entry: LQFEIDDEMEPLYNQAKQMRYGDY [LIR[Sp] peptide]
4.65
